- TARGET_OF_ASSAY: DNA-PK phosphorylation at serine 2056 (Homo sapiens (Human), UniProt P78527)
- TEST_METHOD_NOTES: DNA-PK phosphorylation at serine 2056 (cellular), bleomycin-treated HCT116 cells, ELISA
- Assay type: cell-based
- MEASUREMENT_SETUP: cellular DNA-PK phosphorylation at serine 2056, HCT116; read-out: IC50 pDNA-PK
The following molecules are shown together with reported IC50 values.
EXPERIMENTAL_READOUT: IC50

COC(c1ccc(F)c(-c2ncnc3cc(N4CCOCC4)ccc23)c1)c1nccnc1C (stereo not drawn) | 10000 to 30000 nM
NC(=O)C(c1cc(-c2ncnc3cc(N4CCOCC4)ccc23)c(F)cc1F)c1nccn2cccc12 (stereo not drawn) | 500 to 5000 nM
Fc1cc(Cl)c(Cc2ccc3nccn3n2)cc1-c1ncnc2cc(N3CCOCC3)ccc12 | < 500 nM
COc1cncnc1C(O)c1cc(-c2ncnc3cc(N4CCOCC4)ccc23)c(F)cc1F (stereo not drawn) | 500 to 5000 nM
OC(c1ccc(F)c(-c2ncnc3cc(N4CCOCC4)ccc23)c1)c1nncc2ccoc12 (stereo not drawn) | < 500 nM
OC(c1ccc(F)c(-c2ncnc3cc(N4CCOCC4)ccc23)c1)c1nnc2ccccn12 (stereo not drawn) [Example 399] | 500 to 5000 nM
Cn1cnc2c(C(O)c3cc(-c4ncnc5cc(N6CCOCC6)ccc45)ccc3Cl)ncnc21 (stereo not drawn) | 500 to 5000 nM
COc1nccnc1[C@H](O)c1cc(-c2ncnc3cc(N4CCOCC4)ccc23)c(F)cc1Cl | < 500 nM
Cc1ncc(C(O)c2ccc(F)c(-c3ncnc4cc(N5CCOCC5)ccc34)c2)nc1C (stereo not drawn) | 500 to 5000 nM
[2H]C1([2H])OC([2H])([2H])C([2H])([2H])N(c2ccc3c(-c4cc(C(O)c5nccnc5OC)c(Cl)cc4F)ncnc3c2)C1([2H])[2H] (stereo not drawn) [Example 242] | < 500 nM
Cn1ncc2c(C(O)c3cc(-c4ncnc5cc(N6CCOCC6)ccc45)ccc3F)ncnc21 (stereo not drawn) | 500 to 5000 nM
[2H]C1([2H])OC([2H])([2H])C([2H])([2H])N(c2ccc3c(-c4cc(C(O)c5nccnc5OC)c(Cl)cc4F)ncnc3c2)C1([2H])[2H] (stereo not drawn) [Example 241] | < 500 nM
Cc1cncnc1C(C(N)=O)c1cc(-c2ncnc3cc(N4CCOCC4)ccc23)ccc1Cl (stereo not drawn) [Example 377] | 500 to 5000 nM
OC(c1cc(-c2ncnc3cc(N4CCOCC4)ccc23)ccc1Cl)c1ncnc2ccoc12 (stereo not drawn) [Example 415] | < 500 nM
NC(=O)C(c1ccc(F)c(-c2ncnc3cc(N4CCOCC4)ccc23)c1)c1ncccc1Cl (stereo not drawn) | 5000 to 10000 nM

* * *

- TARGET_OF_ASSAY: DNA-PK (Homo sapiens (Human))
- TEST_METHOD_NOTES: DNA-PK assay (biochemical), flashplate 33P-ATP kinase assay
- MEASUREMENT_SETUP: Table 5
pIC50: −log10 of the molar value.
The following compounds are shown together with reported pIC50 values.
EXPERIMENTAL_READOUT: pIC50

OC(c1cccc(-c2ncnc3cc(N4CCOCC4)ccc23)c1)c1nccs1 (centres unmarked) [Example 150] | 7.52 to 8.15
CC(O)(c1cc(-c2ncnc3cc(N4CCOCC4)ccc23)cs1)c1nccs1 (centres unmarked) | < 7.52
Cc1nc(C(O)c2cnc(F)c(-c3ncnc4cc(N5CCOCC5)ncc34)c2)sc1C (centres unmarked) [Example 203] | < 7.52
CC(C)(C)n1cc(C(O)c2cc(-c3ncnc4cc(N5CCOCC5)ccc34)cnc2F)cn1 (centres unmarked) | 7.52 to 8.15
OC(c1cnc(F)c(-c2ncnc3cc(N4CCOCC4)ccc23)c1)c1nccs1 (centres unmarked) [Example 180] | > 8.52
OC(c1cc(F)c(F)c(-c2ncnc3cc(N4CCOCC4)ccc23)c1)c1nccs1 (centres unmarked) [Example 171] | > 8.52
Cn1cc(C(O)c2ccc(F)c(-c3ncnc4cc(N5CCOCC5)ccc34)c2)cn1 (centres unmarked) | > 8.52
CNCc1csc(C(O)c2cc(-c3ncnc4cc(N5CCOCC5)ccc34)c(F)cc2Cl)n1 (centres unmarked) | 7.52 to 8.15
OC(c1cnc(F)c(-c2ncnc3cc(N4CCOCC4)ccc23)c1)c1nccs1 (centres unmarked) [Example 188] | > 8.52
OCc1csc([C@H](O)c2cc(-c3ncnc4cc(N5CCOCC5)ccc34)c(F)cc2Cl)n1 | 7.52 to 8.15
OCc1csc([C@@H](O)c2cc(-c3ncnc4cc(N5CCOCC5)ccc34)c(F)cc2Cl)n1 | > 8.52
OC(c1cncc(-c2ncnc3cc(N4CCOCC4)ccc23)c1)c1nccs1 (centres unmarked) [Example 184] | 7.52 to 8.15
OC(c1ccc(-c2ncnc3cc(N4CCOCC4)ccc23)s1)c1nccs1 (centres unmarked) | < 7.52
CC(O)(c1ccc(F)c(-c2ncnc3cc(N4CCOCC4)ccc23)c1)c1nccs1 (centres unmarked) | 7.52 to 8.15
OC(c1csc(-c2ncnc3cc(N4CCOCC4)ccc23)c1)c1nccs1 (centres unmarked) | < 7.52
OC(c1cccc(-c2ncnc3cc(N4CCOCC4)ccc23)c1)c1nccs1 (centres unmarked) [Example 148] | 7.52 to 8.15
c1nc(N2CCCCC2)c2scc(N3CCOCC3)c2n1 | 7.52 to 8.15
